system: HT29 RAMS11 overexpressing cells; assay: High-throughput viability assay (resazurin), 119 FDA-approved anticancer drugs, RAMS11 overexpressing cells (Clone1, Clone2); conditions: OE1 (RAMS11 overexpression clone 1), 1 uM drug, 72 h, vs empty vector control
Counter-ions that a name gives are not always drawn.
API: label(entry) gives Satisfied if the entry's Viability Fold Change is strictly smaller than 1; on equality or larger values it gives Not satisfied.

Use the examples below as a reference point.
>>> label_value("Nc1ncn([C@H]2C[C@H](O)[C@@H](CO)O2)c(=O)n1")
"Satisfied"
>>> label_value("CNC(=O)c1ccc(N2C(=S)N(c3ccc(C#N)c(C(F)(F)F)c3)C(=O)C2(C)C)cc1F [Enzalutamide]")
"Not satisfied"
>>> label_value("c1cc(CN2CCCNCCNCCCNCC2)ccc1CN1CCCNCCNCCCNCC1")
"Not satisfied"
>>> label_value("CC(=O)[C@]1(O)Cc2c(O)c3c(c(O)c2[C@@H](O[C@H]2C[C@H](N)[C@H](O)[C@H](C)O2)C1)C(=O)c1ccccc1C3=O [Idarubicin hydrochloride]")
"Not satisfied"
>>> label_value("O=C(CCCCCCC(=O)Nc1ccccc1)NO")
"Satisfied"

Below: the item to evaluate.
# input Hello, I'm reviewing records and need to know if Viability Fold Change of NC(=O)NO [Hydroxyurea] is below 1. Could you check?
# output Satisfied
